All values here come from patent US8258138B2.

Molecular target: human Kv1.3 (Homo sapiens, UniProt P22001)
Construct: expressed in transfected cells; host or cells: stably transfected cells grown in medium for CHO cells
Sequence (P22001 whole entry): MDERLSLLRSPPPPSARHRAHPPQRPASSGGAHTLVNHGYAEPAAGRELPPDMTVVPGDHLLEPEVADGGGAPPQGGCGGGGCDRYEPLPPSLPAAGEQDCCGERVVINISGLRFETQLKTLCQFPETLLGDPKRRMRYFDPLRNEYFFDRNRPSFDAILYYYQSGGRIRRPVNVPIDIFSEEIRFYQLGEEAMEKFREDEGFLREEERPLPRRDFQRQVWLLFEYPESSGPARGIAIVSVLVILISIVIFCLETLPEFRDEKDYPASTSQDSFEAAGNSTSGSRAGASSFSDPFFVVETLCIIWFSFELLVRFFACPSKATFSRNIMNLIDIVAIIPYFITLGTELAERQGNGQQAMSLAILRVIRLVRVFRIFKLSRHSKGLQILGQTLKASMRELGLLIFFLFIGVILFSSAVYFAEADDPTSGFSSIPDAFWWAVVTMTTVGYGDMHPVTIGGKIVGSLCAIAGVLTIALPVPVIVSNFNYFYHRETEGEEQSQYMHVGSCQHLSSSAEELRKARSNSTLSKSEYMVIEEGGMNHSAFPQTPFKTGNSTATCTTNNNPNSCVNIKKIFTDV
Experiment: Kv1.3 Autopatch electrophysiology (whole cell patch-clamp, inhibition of charge movement)
Format: cell-based
Settings: compound at 1 μM; cells stably transfected with human Kv1.3; room temperature; total charge during step to +30 mV relative to control; read-out: hKv1.3 % inh.
Provide the recorded inhibition at 1 µM for the entries that follow.
One number for each entry, in %.

Before answering, review these 3 worked examples.
[
  {
    "MOLECULE": "N#Cc1cccc(S(=O)(=O)N(Cc2ccccc2)c2ccc(C(=O)N3CCN(c4ccccc4)CC3)cc2)c1",
    "inhibition at 1 µM / %": 79
  },
  {
    "MOLECULE": "Cc1ccc(S(=O)(=O)N(Cc2ccccc2)c2ccc(C(=O)N3CCN(c4ccccc4)CC3)cc2)cc1",
    "inhibition at 1 µM / %": 77
  },
  {
    "MOLECULE": "Cn1cnc(S(=O)(=O)N(Cc2ccccc2)c2ccc(C(=O)N3CCCC(C(F)(F)F)C3)cc2)c1 (stereo not shown)",
    "inhibition at 1 µM / %": 74
  }
]

Next:
Challenge: Find inhibition at 1 µM for Cn1cnc(S(=O)(=O)N(Cc2ccccc2)c2ccc(C(=O)N3CCC(c4ccc(F)cc4)C3)cc2)c1 (stereo not shown) on human Kv1.3 (Homo sapiens, UniProt P22001) and write it down.
Response given: 78
